Where do these numbers come from? They come from ChEMBL document CHEMBL3616462.

# TEST_SUMMARY: Selectivity index, ratio of toxicity against human Huh7ET cells assessed as reduction in beta-actin RNA levels at 20 uM to antiviral activity against HCV infected in human Huh7ET cells assessed as reduction in HCV RNA-derived luciferase activity at 20 uM by luciferase reporter gene assay
# Assay type: cell-based, Huh-7
# TEST_CONTEXT: read-out: Selectivity Index
Give selectivity ratio at 20 µM for every item shown.

Kindly note the recorded selectivity ratio at 20 µM for `COC(=O)[C@H](C)NC(=O)[C@]1(C)CCC[C@]2(C)[C@H]3C[C@H]4C(C(C)C)=C[C@]3(CC[C@H]21)[C@@H]1C(=O)CCC(=O)[C@@H]14` , which is > 1

The compound `COC(=O)[C@]1(C)CCC[C@]2(C)[C@H]3CC4C(C(C)C)=C[C@]3(CC[C@H]21)[C@@H]1NC(=O)CC[C@H](O)[C@H]41` showed selectivity ratio at 20 µM equal to > 1

Lab note: `COC(=O)[C@]1(C)CCC[C@]2(C)[C@H]3C[C@H]4C(C(C)C)=C[C@]3(CC[C@H]21)[C@H]1[C@@H]4[C@@H](OC(=O)CCC(=O)O)CC[C@@H]1OC(=O)CCC(=O)O` gave selectivity ratio at 20 µM of < 1

* * *

# TEST_SUMMARY: Cytotoxicity against Influenza A virus (A/California/07/2009(H1N1)) infected MDCK cells
# Type: cell-based, Canis lupus familiaris
# TEST_CONTEXT: dog
Threshold check on CC50: strictly below 30 µM is TRUE; on or above 30 µM is FALSE.

Lab note: confirm whether the reported CC50 for this molecule is below 30 µM, equality not counting. molecule: `COC(=O)[C@]12CC[C@H](O)[C@H]1[C@@]13C=C(C(C)C)[C@@H]2C[C@@H]1[C@@]1(C)CCC[C@@](C)(C(=O)OC)[C@@H]1CC3`
FALSE

Hi there! Is CC50 for `COC(=O)[C@]1(C)CCC[C@]2(C)[C@H]3C[C@H]4C(C(C)C)=C[C@]3(CC[C@H]21)[C@@H]1/C(=N/OC(C)=O)CC[C@H](OC(C)=O)[C@@H]14` below 30 µM, do you know?
TRUE

Hello, is CC50 of the following molecule strictly smaller than 30 µM? `COC(=O)[C@]1(C)CCC[C@]2(C)[C@H]3C[C@H]4C(C(C)C)=C[C@]3(CC[C@H]21)[C@@H]1/C(=N/O)CC[C@H](O)[C@@H]14`
TRUE

Answer whether the molecule `COC(=O)[C@]1(C)CCC[C@]2(C)[C@H]3C[C@H]4C(C(C)C)=C[C@]3(CC[C@H]21)[C@@H]1C(=O)CC[C@H](OC(=O)CCC(=O)O)[C@@H]14` has CC50 strictly less than 30 µM
FALSE

Given the entry `CC(C)C1=C[C@@]23CC[C@@H]4[C@](C)(CCC[C@@]4(C)C(=O)O)[C@H]2C[C@@H]1[C@H]1C(=O)C=CC(=O)[C@H]13` , would its reported CC50 be below 30 µM?
FALSE

I'd appreciate it if you could check whether `COC(=O)[C@]1(C)CCC[C@]2(C)[C@H]3C[C@H]4C(C(C)C)=C[C@]3(CC[C@H]21)[C@H]1[C@@H]4[C@@H](OC(=O)c2cccnc2)CC[C@@H]1OC(=O)c1cccnc1` has CC50 smaller than 30 µM.
FALSE

Field: below-cutoff. Rule: recorded CC50 strictly less than 30 µM. Subject: `COC(=O)[C@]12CCC(=O)[C@H]1[C@@]13C=C(C(C)C)[C@@H]2C[C@@H]1[C@@]1(C)CCC[C@@](C)(C(=O)OC)[C@@H]1CC3`
FALSE

Bench note: check whether `COC(=O)[C@]1(C)CCC[C@]2(C)[C@H]3C[C@H]4C(C(C)C)=C[C@]3(CC[C@H]21)[C@@H]1C(=O)CC[C@H](OCCC#N)[C@@H]14` shows CC50 below 30 µM
FALSE

Hello, I'm reviewing records and need to know if CC50 of COC(=O)[C@H]1[C@@H](C(=O)OC)C2(C(=O)OC)CC[C@@H]3[C@](C)(CCC[C@@]3(C)C(=O)OC)[C@H]2C[C@H]1C(=O)C(C)C (stereo partly specified) is below 30 µM. Could you check?
FALSE

Does the reported CC50 of the following molecule sit strictly below 30 µM? `COC(=O)[C@]1(C)CCC[C@]2(C)[C@H]3C[C@@H]4[C@@H]5[C@H]6[C@H](OC(C)=O)CC[C@@H]5OC4(C(C)C)C[C@]63CC[C@H]21`
TRUE

In plain terms, does `COC(=O)[C@H](CCSC)NC(=O)[C@]1(C)CCC[C@]2(C)[C@H]3C[C@H]4C(C(C)C)=C[C@]3(CC[C@H]21)[C@@H]1C(=O)OC(=O)[C@@H]14` come in under 30 µM for CC50?
FALSE

* * *

# TEST_SUMMARY: Selectivity index, ratio of CC50 for ARS coronavirus Urbani infected African green monkey Vero 76 cells to EC50 for antiviral activity against ARS coronavirus Urbani infected in African green monkey Vero 76 cells
# Format: toxicity, cell-based
# TEST_CONTEXT: Vero 76 cells infected with SARS coronavirus Urbani, read-out: Ratio CC50/EC50
QUANTITY_NAME: selectivity ratio
API note: the answer field is a bare number with no unit suffix.

Recorded result, `COC(=O)[C@]1(C)CCC[C@]2(C)[C@H]3CC4C(C(C)C)=C[C@]3(CC[C@H]21)[C@@H]1NC(=O)CC[C@H](O)[C@H]41` , selectivity ratio: 5.1

get_value(item= `COC(=O)[C@]1(C)CCC[C@]2(C)[C@H]3C[C@H]4C(C(C)C)=C[C@]3(CC[C@H]21)[C@H]1[C@@H]4[C@@H](OC(=O)CCC(=O)O)CC[C@@H]1OC(=O)CCC(=O)O` , readout=selectivity ratio) returns 1.1

// selectivity ratio value for `COC(=O)[C@H](C)NC(=O)[C@]1(C)CCC[C@]2(C)[C@H]3C[C@H]4C(C(C)C)=C[C@]3(CC[C@H]21)[C@@H]1C(=O)CCC(=O)[C@@H]14` : 1.1

* * *

Give CC50 for every item shown.
# TEST_SUMMARY: Cytotoxicity against HPV11 infected PHK cells epithelial raft cultures by standard AACF screening assay
# Type: cell-based
# TEST_CONTEXT: human

// sample `COC(=O)[C@]1(C)CCC[C@]2(C)[C@H]3CC4C(C(C)C)=C[C@]3(CC[C@H]21)[C@@H]1NC(=O)CC[C@H](O)[C@H]41` , its CC50 was < 50 µM

// sample COC(=O)[C@H]1[C@@H](C(=O)OC)C2(C(=O)OC)CC[C@@H]3[C@](C)(CCC[C@@]3(C)C(=O)OC)[C@H]2C[C@H]1C(=O)C(C)C (stereo not given in full) , its CC50 was < 50 µM

Looking up `COC(=O)[C@H](C)NC(=O)[C@]1(C)CCC[C@]2(C)[C@H]3C[C@H]4C(C(C)C)=C[C@]3(CC[C@H]21)[C@@H]1C(=O)CCC(=O)[C@@H]14` , I see its CC50 listed as < 25 µM

Lab note: `COC(=O)[C@]1(C)CCC[C@]2(C)[C@H]3C[C@H]4C(C(C)C)=C[C@]3(CC[C@H]21)[C@H]1[C@@H]4[C@@H](OC(=O)CCC(=O)O)CC[C@@H]1OC(=O)CCC(=O)O` gave CC50 of < 50 µM

Form: molecule = `COC(=O)[C@]1(C)CCC[C@]2(C)[C@H]3C[C@H]4C(C(C)C)=C[C@]3(CC[C@H]21)[C@@H]1/C(=N/O)CCC2(OCCO2)[C@@H]14` ; CC50 = < 50 µM

* * *

Please go through the items and note down their pEC50.
# TEST_SUMMARY: Antiviral activity against Influenza A virus (A/California/07/2009(H1N1)) infected in MDCK cells
# Assay type: functional, cell-based
Would you please state pEC50, meaning minus log10 of the concentration in mol/L, as a bare number?

Short answer for `COC(=O)[C@]1(C)CCC[C@]2(C)[C@H]3C[C@H]4C(C(C)C)=C[C@]3(CC[C@H]21)[C@@H]1C(=O)OC(=O)[C@@H]14` : pEC50 was 4.51

GET /value?item= `CC(C)C1=C[C@]23CC[C@@H]4[C@](C)(CCC[C@@]4(C)C(=O)O)[C@H]2C[C@H]1[C@H]1C(=O)OC(=O)[C@H]13` &field=pEC50 returns 4.51

pEC50 recorded for this molecule, `COC(=O)[C@]1(C)CCC[C@]2(C)[C@H]3C[C@H]4C(C(C)C)=C[C@]3(CC[C@H]21)[C@@H]1C(=O)CCC2(OCCO2)[C@@H]14` , is 4.57

get_value(item= `COC(=O)[C@]1(C)CCC[C@]2(C)[C@H]3CC4C(C(C)C)=C[C@]3(CC[C@H]21)[C@@H]1NC(=O)CC[C@H](O)[C@H]41` , readout=pEC50) returns 4.49

Note to self: pEC50 recorded for `COC(=O)[C@]1(C)CCC[C@]2(C)[C@H]3C[C@H]4C(C(C)C)=C[C@]3(CC[C@H]21)[C@@H]1C(=O)CC[C@H](OC(=O)/C=C/c2ccccc2)[C@@H]14` was 4.51

Lab note: measured pEC50 of `COC(=O)[C@]12C=CC(=O)[C@H]1[C@@]13C=C(C(C)C)[C@@H]2C[C@@H]1[C@@]1(C)CCC[C@@](C)(C(=O)OC)[C@@H]1CC3` was 5.51

Lab book: pEC50 of `CC(C)C1=C[C@@]23CC[C@H]4[C@](C)(COC(=O)/C=C/c5ccccc5)CCC[C@]4(C)[C@H]2C[C@@H]1[C@@H]1[C@H]3[C@@H](OC(=O)/C=C/c2ccccc2)CC[C@@H]1OC(=O)/C=C/c1ccccc1` noted as 4.51

# pEC50 of `COC(=O)[C@]1(C)CCC[C@]2(C)[C@H]3C[C@H]4C(C(C)C)=C[C@]3(CC[C@H]21)[C@H]1[C@@H]4[C@@H](OC(=O)c2cccnc2)CC[C@@H]1OC(=O)c1cccnc1` = 4.54

# pEC50 (molecule: `COC(=O)[C@]1(C)CCC[C@]2(C)[C@H]3C[C@H]4C(C(C)C)=C[C@]3(CC[C@H]21)[C@@H]1/C(=N/O)CCC(=O)[C@@H]14` ) is 4.51
